System: HCT-15
Class boundaries, taken from values of GI50, are as follows: low: < 6 µM; moderate: ≥ 6 µM and < 20 µM; high: ≥ 20 µM

compound="CN1CCC23c4c5ccc(O)c4OC2C(=NN=C2CCC4(O)C6Cc7ccc(O)c8c7C4(CCN6C)C2O8)CCC3(O)C1C5 (stereo not drawn)" group_label=high
compound="C=C1C(O)C23CCC4C(C(=O)O)(C(=O)O)CC(OC5OC(CO)C(O)C(OC(=O)CCc6ccccc6)C5NC(=O)CC(C)C)CC4(C)C2CCC1(O)C3 (stereo not drawn)" group_label=high
compound=C=CCc1cccc(/C=N\N/C(N)=N/O)c1O group_label=low

Asked: Form: Item = C[Si](C)(C)OC1c2[nH]c3ccccc3c2CN2C(=O)CCC12 (stereo not drawn) ; Class = ?
Given back: high

Asked: Hello team, could you let me know which band the following compound falls into: O=C1C=Cc2c1csc2Br
Given back: high

Asked: Hello team, could you let me know which band the following compound falls into: CN(C)CCNC(=O)c1cccc2c1nc(-c1ccccn1)c1ccccc12
Given back: moderate

Asked: Which category does the recorded GI50 put O=C(Nc1ccc(Br)cc1)C(=O)C(C(=O)c1ccccc1F)C1OC(=O)c2ccccc21 (stereo not drawn) in?
Given back: high

Asked: Class label required: NCCCOCC(=O)O
Given back: high

Asked: Band for CCOC(=O)Cn1c(=O)c2cc(C)cc3c(Cl)nc4c(OC)c(OC)cc1c4c32 ?
Given back: high

###

Tested on: HOP-62
Assay: NCI tumour cell line growth inhibition, 48 h
Active and inactive are the calls of the source. No stated cut-off is given here; in the data, active = GI50 up to about 1.1 µM and inactive = higher.
measurement_kind: GI50

compound="O=C(Nc1cccc(C(F)(F)F)c1)C(=O)C(C(=O)c1ccc2ccccc2c1)C1OC(=O)c2ccccc21 (stereo unspecified)" tested_on=HOP-62 reported_value="11.5 µM (inactive)"

Asked: GI50 lookup needed for COc1ccc(-c2c(C(C)=O)c(-c3ccccc3)n(C3OC(CO)C(O)C(O)C3O)c(=S)c2C#N)cc1 (stereo unspecified) , thanks.
Given back: > 100 µM (inactive)

###

System: UO-31
Assay: NCI tumour cell line growth inhibition, 48 h
Active and inactive are the calls of the source. Cut-off read from the data, not from the text of the source: active = GI50 up to about 1.1 µM and inactive = higher.
measurement_kind: GI50

Some solved cases for reference:
molecule="O=C1OC(C2(O)OC(=O)c3ccccc32)c2ccccc21 (stereo not drawn)" tested_on=UO-31 reported_value="> 100 µM (inactive)"
molecule=O=C(O/N=C1/CCCC/C1=C\c1ccccc1)c1ccc(Cl)c(Cl)c1 tested_on=UO-31 reported_value="17.9 µM (inactive)"

// below: GI50 requested for another molecule
Asked: Reported GI50 for Cc1ccc(S(=O)(=O)N2CCNCCN(S(=O)(=O)c3ccc(C)cc3)CCNCC2)cc1 : what is it?
Given back: 19.8 µM (inactive)

###

Listed below: GI50 values for each entry.
System: MDA-MB-231
Assay: NCI tumour cell line growth inhibition, 48 h
Activity calls are given as the source filed them. Cut-off read from the data, not from the text of the source: active = GI50 up to about 1.1 µM and inactive = higher.

Some compounds with known GI50 results, for comparison:
compound=O=C(Nc1cnc(O)nc1O)Oc1ccccc1 tested_on=MDA-MB-231 reported_value="> 100 µM (inactive)"
compound=CC(=O)Nc1cc([As](=O)(O)O)ccc1O tested_on=MDA-MB-231 reported_value="> 100 µM (inactive)"

Asked: Which GI50 reading was recorded for the compound CCCCC1Cc2cc(O)ccc2-c2n1c1cc(O)ccc1[n+]2C.CCCCC1Cc2cc(O)ccc2-c2n1c1ccc(O)cc1[n+]2C (stereo not drawn) ?
Given back: 48 µM (inactive)

###

Listing of entries alongside the reported GI50.
Test system: DU-145
Assay: NCI tumour cell line growth inhibition, 48 h
The source made the active and inactive calls. Cut-off read from the data, not from the text of the source: active = GI50 up to about 1.1 µM and inactive = higher.

The cases that follow already have their GI50 on record.
compound="CC1(C)/C(=N\\Nc2ccc([N+](=O)[O-])cc2[N+](=O)[O-])C2CCC1C2 (configuration not stated)" reported_value="> 100 µM (inactive)"
compound=O=[N+]([O-])c1cccc(-c2csc(N/N=C3\NC/C(=C/c4ccc5c(c4)OCO5)S3)n2)c1 reported_value="33.8 µM (inactive)"
compound=C1CC2=C(C1)[Se]C(=C1Sc3nsnc3S1)[Se]2 reported_value="> 100 µM (inactive)"
compound=CCN(CC)CCN(/C(=N/c1ccccc1)N1CCOCC1)c1ccccc1 reported_value="> 100 µM (inactive)"
compound="CCOC(=O)C1=C(C)N(Cc2ccccc2)C2(O)C(OC)CC(=O)C3C(=O)N(c4ccccc4)C(=O)C132 (configuration not stated)" reported_value="3.9 µM (inactive)"
compound=CCc1ccccc1NC(=O)C(=O)CC(=O)c1sc(Nc2ccccc2Cl)nc1C reported_value="55.1 µM (inactive)"
compound=O=C(O)C(O)(c1ccc(-c2ccccc2)cc1)c1ccc(-c2ccccc2)cc1 reported_value="16.6 µM (inactive)"
compound=CCN1C(Cl)=NS(=O)(=O)c2ccccc21 reported_value="36.7 µM (inactive)"

Asked: Which GI50 is reported for this compound? CC(=O)O[C@H]1C(=O)[C@@]2(C)C([C@H](OC(=O)c3ccccc3)[C@]3(O)C[C@H](OC(=O)[C@H](O)[C@@H](NC(=O)c4ccc(Cl)cc4)c4ccccc4)C(C)=C1C3(C)C)C1(OC(C)=O)CO[C@@H]1C[C@@H]2O (some centres not stated)
Given back: 0.0865 µM (active)

Asked: I have this compound here, Cc1cc(O)c(C(C)C)cc1/N=C/c1ccccc1O , and I need its recorded GI50.
Given back: 5.53 µM (inactive)

Asked: What value of GI50 has been reported for the following compound? O=C(O)/C(Cc1ccnc2ccccc12)=N\O
Given back: > 100 µM (inactive)

Asked: Give its GI50 value. Item: COc1cc(-c2nc3ccccn3c2/N=C/c2cc(Br)cc(Br)c2O)ccc1O
Given back: 27.6 µM (inactive)

Asked: // query GI50 value for entry O=c1cc(-c2cc(O)c(O)c(-c3c(O)cc4oc(-c5ccc(O)c(O)c5)cc(=O)c4c3O)c2)oc2cc(O)cc(O)c12
Given back: > 25 µM (inactive)

Asked: Field request: GI50 | item: N#CC(C#N)/N=N/c1ccc(-c2nc3ccccc3[nH]2)cc1
Given back: 16.4 µM (inactive)

Asked: # GI50 lookup, item Cc1ccc(S(=O)(=O)N2CCNCCN(S(=O)(=O)c3ccc(C)cc3)CCNCC2)cc1
Given back: 19.5 µM (inactive)

Asked: # GI50 lookup, item OC(c1ccccc1)(c1cccnc1)C(O)(c1ccccc1)c1cccnc1 (configuration not stated)
Given back: > 100 µM (inactive)

Asked: Tell me the measured GI50 of CCCCC1Cc2cc(O)ccc2-c2n1c1cc(O)ccc1[n+]2C.CCCCC1Cc2cc(O)ccc2-c2n1c1ccc(O)cc1[n+]2C (configuration not stated) , please.
Given back: 78.7 µM (inactive)

Asked: State the recorded GI50 for this entry: Nc1nc(SCCc2ccccc2)c2nc[nH]c2n1
Given back: 36.2 µM (inactive)

Asked: Consider the compound Nc1nc(Nc2ccccc2)c2[nH]cnc2n1 and give its measured GI50.
Given back: 77.3 µM (inactive)

Asked: Tell me the measured GI50 of Oc1ccc(NCn2c(=S)sc3ccccc32)cc1 , please.
Given back: > 100 µM (inactive)

###

Test system: MDA-N
Assay: NCI tumour cell line growth inhibition, 48 h
Activity calls are given as the source filed them. Rule as the data show it: active = GI50 up to about 1.1 µM and inactive = higher.
Pick one and only one: 1 (yes) (active), 0 (no) (inactive)

Would you please look over these solved cases?
compound=CCOC(=O)c1ccc(NC(=O)Oc2ccc3c(C)cc(=O)oc3c2)cc1 group_label="0 (no)"
compound=Cc1ccc2oc3c(ccc(=O)n3C)c(=O)c2c1 group_label="0 (no)"
compound=CC1=C[C@H](O)[C@@]2(C)[C@@H]([C@@H]1C)[C@H]1CC[C@@H]3[C@@]4(C)CC[C@H](O)C(C)(C)[C@@H]4CC[C@@]3(C)[C@]1(C)C[C@@H]2O group_label="0 (no)"

Asked: Recorded test call requested for CCc1cccc(C(C)(C)C)c1NC(=S)N/C=C(/C#N)C(N)=O
Given back: 0 (no)

Asked: Outcome? N#CC(c1ccccc1)N(CCc1ccccc1)C(=O)c1ccc(C(=O)N(CCc2ccccc2)C(C#N)c2ccccc2)cc1 (centres undefined)
Given back: 0 (no)

Asked: Returns: the outcome recorded for COc1cc2c(cc1OC)[C@H]1C(=O)c3cc4c(cc3[C@H]1N(C)C2=O)OCO4 in this assay.
Given back: 0 (no)

Asked: Query: recorded result category for CCOC(=O)/C(C#N)=C/c1ccc2c(c1)CC1(C2)Cc2cc(CC)c(C(C)O)cc2C1 (centres undefined) in this test
Given back: 0 (no)

Asked: Hi team, can someone confirm the assay call for CN1CCC2(CC1)SSC1(CCN(C)CC1)S2 ?
Given back: 0 (no)

Asked: For COc1cccc(-c2cc(O)c3cc(OC)ccc3n2)c1 , which call appears in the assay record?
Given back: 1 (yes)

###

Test system: SNB-75
Test: NCI tumour cell line growth inhibition, 48 h
The source made the active and inactive calls. Rule as the data show it: active = GI50 up to about 1.1 µM and inactive = higher.
measurement_kind: GI50

Answered examples (5):
molecule=CCc1nc(N)nc(N)c1-c1ccc([N+](=O)[O-])c(NCc2ccccc2)c1 reported_value="10.1 µM (inactive)"
molecule="CC1(Cl)CC2OC3(Br)C=CC(C)(O)C2(CC1Br)C3(C)C (stereo unspecified)" reported_value="82.6 µM (inactive)"
molecule=CCN(CC)CCN(/C(=N/c1ccccc1)N1CCOCC1)c1ccccc1 reported_value="> 100 µM (inactive)"
molecule=CC#CS(=O)(=O)c1ccccc1 reported_value="3.01 µM (inactive)"
molecule=CC(C)c1cccc(C(C)C)c1/N=C(/N)C#N reported_value="> 100 µM (inactive)"

Switching to the query record.
Asked: Suppose we examine the molecule O=C(OCc1ccccc1)C(Cc1ccccc1)N(Cc1ccccc1)Cc1ccccc1 (stereo unspecified) ; what GI50 value has been reported?
Given back: 16.5 µM (inactive)
